B1: ZNF449 (parent)
chain: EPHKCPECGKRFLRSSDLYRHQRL

Variants of: B1
test-method-notes: protein stability index of a GFP-peptide fusion (GPS, HEK-293T) (PSI 1-6); higher = more stable;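 further: lentivirally expressed fusions sorted by FACS into six bins by GFP to DsRed ratio, PSI derived from sequencing read proportions per bin multiplied by bin number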
run-conditions: c terminus: a fixed tail appended
experimental-endpoint: protein stability index

>>> test_value("P2G")
3.81
>>> test_value("S15M")
3.98
>>> test_value("K10Q")
4.08
>>> test_value("R11P")
3.68
>>> test_value("G9Q")
3.16
>>> test_value("H3Y")
4.7
>>> test_value("S15F")
3.51
>>> test_value("R23D")
4.32
>>> test_value("L13Y")
4.09
>>> test_value("E1C")
2.14
>>> test_value("F12T")
2.32
>>> test_value("R14G")
2.33
>>> test_value("L24V")
3.82
>>> test_value("G9H")
3.08
>>> test_value("H3T")
3.9
>>> test_value("G9C")
2.18
>>> test_value("L13A")
4
>>> test_value("R14V")
3.2
>>> test_value("R20K")
4.43
>>> test_value("K10W")
2.13
>>> test_value("Y19F")
3.96
>>> test_value("L24R")
3.84
>>> test_value("S16K")
3.81
>>> test_value("R14T")
4.61
>>> test_value("G9Y")
2.8
>>> test_value("R23E")
4.47
>>> test_value("L13D")
4.82
>>> test_value("F12N")
2.06
>>> test_value("K10E")
3.63
>>> test_value("L18P")
2.37
>>> test_value("F12K")
2.88
>>> test_value("H3D")
3.23
>>> test_value("L24A")
3.83
>>> test_value("R20V")
4.02
>>> test_value("P6I")
3.23
>>> test_value("H3I")
4.1
>>> test_value("L18A")
3.08
>>> test_value("Y19V")
3.89
>>> test_value("C8F")
2.72
>>> test_value("G9S")
3.36
>>> test_value("Q22I")
2.91
>>> test_value("C8G")
3.3
>>> test_value("L24C")
4.97
>>> test_value("Y19A")
4.05
>>> test_value("H21I")
1.64
>>> test_value("C8I")
3.06
>>> test_value("H3L")
4.89
>>> test_value("Q22R")
3.84
>>> test_value("Q22S")
3.16
>>> test_value("C8R")
3.08
>>> test_value("E1A")
2.84
>>> test_value("K4H")
4.09
>>> test_value("E1M")
2.89
>>> test_value("E1T")
2.6
>>> test_value("P2A")
3.5
>>> test_value("R11L")
4.57
>>> test_value("Q22L")
3.93
>>> test_value("K10L")
3.65
